- method: Drug level in Sprague-Dawley rat plasma at 10 mg/kg, po after 4 hrs
- condition: read-out: Drug uptake
quantity: concentration at 4 h (ng/mL)
Report as a plain number; the unit ng/mL is understood.

For `CN(CC1CCOCC1)C1CCN(c2nc3ccccc3n2Cc2ccc(F)cc2)CC1` the compound record lists concentration at 4 h as 9

----------
- method: Apparent permeability across human Caco-2 cell membrane
- Type: ADME, cell-based
quantity: Papp (×10⁻⁶ cm/s)
Report as a plain number; the unit ×10⁻⁶ cm/s is understood.

For `O=C1CCCCN1C1CCN(c2nc3ccccc3n2Cc2ccc(F)cc2)CC1` the compound record lists Papp as 12.4
